A collection of proteins and their measured Km
# Substrate: O=C(O)C[C@H](O)C(=O)O
# EXPERIMENT: cells, lysate or membranes named
# TEST CONDITIONS: other: 37° C., pH 8, NAD
Hi! Could you send only the number? It should be in mM, unit omitted.

Worked set:
{"PROTEIN": "Escherichia coli malate dehydrogenase Ec-Mdh variant R81A I12V, SEQ ID No. 162 (Escherichia coli K-12; I12V/R81A) (protein) MKVAVLGAAGGVGQALALLLKTQLPSGSELSLYDIAPVTPGVAVDLSHIPTAVKIKGFSGEDATPALEGADVVLISAGVAAKPGMDRSDLFNVNAGIVKNLVQQVAKTCPKACIGIITNPVNTTVAIAAEVLKKAGVYDKNKLFGVTTLDIIRSNTFVAELKGKQPGEVEVPVIGGHSGVTILPLLSQVPGVSFTEQEVADLTKRIQNAGTEVVEAKAGGGSATLSMGQAAARFGLSLVRALQGEQGVVECAYVEGDGQYARFFSQPLLLGKNGVEERKSIGTLSAFEQNALEGMLDTLKKDIALGEEFVNK", "MEASUREMENT UNIT": "mM", "Km": 8.5}
{"PROTEIN": "Escherichia coli malate dehydrogenase Ec-Mdh variant R81A M85Q I12V, SEQ ID No. 164 (Escherichia coli K-12; I12V/M85Q/R81A) (protein) MKVAVLGAAGGVGQALALLLKTQLPSGSELSLYDIAPVTPGVAVDLSHIPTAVKIKGFSGEDATPALEGADVVLISAGVAAKPGQDRSDLFNVNAGIVKNLVQQVAKTCPKACIGIITNPVNTTVAIAAEVLKKAGVYDKNKLFGVTTLDIIRSNTFVAELKGKQPGEVEVPVIGGHSGVTILPLLSQVPGVSFTEQEVADLTKRIQNAGTEVVEAKAGGGSATLSMGQAAARFGLSLVRALQGEQGVVECAYVEGDGQYARFFSQPLLLGKNGVEERKSIGTLSAFEQNALEGMLDTLKKDIALGEEFVNK", "MEASUREMENT UNIT": "mM", "Km": 12.5}

## Input Reported Km for Escherichia coli malate dehydrogenase Ec-Mdh variant R81A, SEQ ID No. 156 (Escherichia coli K-12; R81A) (protein) MKVAVLGAAGGIGQALALLLKTQLPSGSELSLYDIAPVTPGVAVDLSHIPTAVKIKGFSGEDATPALEGADVVLISAGVAAKPGMDRSDLFNVNAGIVKNLVQQVAKTCPKACIGIITNPVNTTVAIAAEVLKKAGVYDKNKLFGVTTLDIIRSNTFVAELKGKQPGEVEVPVIGGHSGVTILPLLSQVPGVSFTEQEVADLTKRIQNAGTEVVEAKAGGGSATLSMGQAAARFGLSLVRALQGEQGVVECAYVEGDGQYARFFSQPLLLGKNGVEERKSIGTLSAFEQNALEGMLDTLKKDIALGEEFVNK : what is it?
## Output 0.7

## Input Reported Km for Escherichia coli malate dehydrogenase Ec-Mdh variant R81A M85Q, SEQ ID No. 158 (Escherichia coli K-12; M85Q/R81A) (protein) MKVAVLGAAGGIGQALALLLKTQLPSGSELSLYDIAPVTPGVAVDLSHIPTAVKIKGFSGEDATPALEGADVVLISAGVAAKPGQDRSDLFNVNAGIVKNLVQQVAKTCPKACIGIITNPVNTTVAIAAEVLKKAGVYDKNKLFGVTTLDIIRSNTFVAELKGKQPGEVEVPVIGGHSGVTILPLLSQVPGVSFTEQEVADLTKRIQNAGTEVVEAKAGGGSATLSMGQAAARFGLSLVRALQGEQGVVECAYVEGDGQYARFFSQPLLLGKNGVEERKSIGTLSAFEQNALEGMLDTLKKDIALGEEFVNK : what is it?
## Output 2.2

## Input Reported Km for Escherichia coli malate dehydrogenase Ec-Mdh variant R81A D86S, SEQ ID No. 170 (Escherichia coli K-12; D86S/R81A) (protein) MKVAVLGAAGGIGQALALLLKTQLPSGSELSLYDIAPVTPGVAVDLSHIPTAVKIKGFSGEDATPALEGADVVLISAGVAAKPGMSRSDLFNVNAGIVKNLVQQVAKTCPKACIGIITNPVNTTVAIAAEVLKKAGVYDKNKLFGVTTLDIIRSNTFVAELKGKQPGEVEVPVIGGHSGVTILPLLSQVPGVSFTEQEVADLTKRIQNAGTEVVEAKAGGGSATLSMGQAAARFGLSLVRALQGEQGVVECAYVEGDGQYARFFSQPLLLGKNGVEERKSIGTLSAFEQNALEGMLDTLKKDIALGEEFVNK : what is it?
## Output 10.3

## Input Reported Km for Escherichia coli malate dehydrogenase Ec-Mdh variant R81A M85E, SEQ ID No. 160 (Escherichia coli K-12; M85E/R81A) (protein) MKVAVLGAAGGIGQALALLLKTQLPSGSELSLYDIAPVTPGVAVDLSHIPTAVKIKGFSGEDATPALEGADVVLISAGVAAKPGEDRSDLFNVNAGIVKNLVQQVAKTCPKACIGIITNPVNTTVAIAAEVLKKAGVYDKNKLFGVTTLDIIRSNTFVAELKGKQPGEVEVPVIGGHSGVTILPLLSQVPGVSFTEQEVADLTKRIQNAGTEVVEAKAGGGSATLSMGQAAARFGLSLVRALQGEQGVVECAYVEGDGQYARFFSQPLLLGKNGVEERKSIGTLSAFEQNALEGMLDTLKKDIALGEEFVNK : what is it?
## Output 8.6

## Input Reported Km for Escherichia coli malate dehydrogenase Ec-Mdh variant R81A M85E I12V, SEQ ID No. 166 (Escherichia coli K-12; I12V/M85E/R81A) (protein) MKVAVLGAAGGVGQALALLLKTQLPSGSELSLYDIAPVTPGVAVDLSHIPTAVKIKGFSGEDATPALEGADVVLISAGVAAKPGEDRSDLFNVNAGIVKNLVQQVAKTCPKACIGIITNPVNTTVAIAAEVLKKAGVYDKNKLFGVTTLDIIRSNTFVAELKGKQPGEVEVPVIGGHSGVTILPLLSQVPGVSFTEQEVADLTKRIQNAGTEVVEAKAGGGSATLSMGQAAARFGLSLVRALQGEQGVVECAYVEGDGQYARFFSQPLLLGKNGVEERKSIGTLSAFEQNALEGMLDTLKKDIALGEEFVNK : what is it?
## Output 11.2
